The entries below come with measured IC50 values attached.
Target: glucosylceramide synthase (GCS) (Homo sapiens)
Construct: The obtained supernatant was used
Sequence (Q16739 whole entry): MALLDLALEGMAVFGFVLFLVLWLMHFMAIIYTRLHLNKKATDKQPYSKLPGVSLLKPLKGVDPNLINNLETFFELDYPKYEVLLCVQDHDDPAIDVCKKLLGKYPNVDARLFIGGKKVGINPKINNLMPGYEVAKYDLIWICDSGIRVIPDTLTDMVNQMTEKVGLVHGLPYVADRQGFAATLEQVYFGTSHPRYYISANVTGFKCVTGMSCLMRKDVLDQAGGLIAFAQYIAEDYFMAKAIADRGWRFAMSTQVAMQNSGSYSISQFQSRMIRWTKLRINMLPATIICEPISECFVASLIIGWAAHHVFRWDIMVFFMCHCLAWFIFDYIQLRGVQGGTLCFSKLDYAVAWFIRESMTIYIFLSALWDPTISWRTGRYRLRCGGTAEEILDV
Test: GCS enzyme inhibition assay (A549 cell lysate, NBD C6-ceramide, HPLC fluorescence)
Conditions: inhibitory activity against GCS, 37° C., 90 minutes
Protocol: Ibiglustat, known as a GCS inhibitor, was used as a control. After the cells attached to the culture dish were washed with phosphate buffered saline (PBS), the cells were scraped off with a cell scraper and then centrifuged (4000 rpm, 3 min, 4° C.) to collect the cells in a 50 ml tube. […] The obtained supernatant was used for the quantitative analysis of proteins. The amount of proteins was measured using the BCA protein assay kit, using bovine serum albumin as a standard. […]

Compound | Assayed system | Uom | IC50
CC(C)(C)c1ccc(-c2ccc3c(c2)OCCC3NC(=O)O[C@@H]2CN3CCC2CC3)cc1 (stereo partly shown) | glucosylceramide synthase (GCS) (Homo sapiens) | nM | 10.2
C=Cc1cccc(-c2ccc3c(c2)OCC(C)(C)C3NC(=O)O[C@@H]2CN3CCC2CC3)c1 (stereo partly shown) | glucosylceramide synthase (GCS) (Homo sapiens) | nM | 0.42
CC(C)Oc1ccc(-c2ccc3c(c2)OCCC3NC(=O)O[C@@H]2CN3CCC2CC3)cc1Cl (stereo partly shown) | glucosylceramide synthase (GCS) (Homo sapiens) | nM | 2.86
Cc1ccc(-c2ccc3c(c2)OCC(C)(C)C3NC(=O)O[C@@H]2CN3CCC2CC3)c(F)n1 (stereo partly shown) | glucosylceramide synthase (GCS) (Homo sapiens) | nM | 0.86
COCOc1cccc(-c2ccc3c(c2)OCC(C)(C)C3NC(=O)O[C@@H]2CN3CCC2CC3)c1 (stereo partly shown) | glucosylceramide synthase (GCS) (Homo sapiens) | nM | 1.17
COc1ccc(-c2ccc3c(c2)OCC(C)(C)C3NC(=O)O[C@@H]2CN3CCC2CC3)cc1F (stereo partly shown) | glucosylceramide synthase (GCS) (Homo sapiens) | nM | 1.63
CC1(C)COc2cc(-c3ccccc3Cl)ccc2C1NC(=O)O[C@@H]1CN2CCC1CC2 (stereo partly shown) | glucosylceramide synthase (GCS) (Homo sapiens) | nM | 0.37
CC1(C)COc2cc(-c3ccc(F)c(F)c3)ccc2C1NC(=O)O[C@@H]1CN2CCC1CC2 (stereo partly shown) | glucosylceramide synthase (GCS) (Homo sapiens) | nM | 0.47
O=C(NC1CCSc2cc(-c3ccc4c(c3)OC(F)(F)O4)ccc21)O[C@@H]1CN2CCC1CC2 (stereo partly shown) | glucosylceramide synthase (GCS) (Homo sapiens) | nM | 2.7
COc1ncc(-c2ccc3c(c2)OCCC3NC(=O)O[C@@H]2CN3CCC2CC3)cc1Cl (stereo partly shown) | glucosylceramide synthase (GCS) (Homo sapiens) | nM | 5.75
O=C(NC1CCOc2cc(-c3cccc(Cl)c3)ccc21)O[C@@H]1CN2CCC1CC2 (stereo partly shown) | glucosylceramide synthase (GCS) (Homo sapiens) | nM | 0.7
CC1(C)COc2cc(-c3ccsc3)ccc2C1NC(=O)O[C@@H]1CN2CCC1CC2 (stereo partly shown) | glucosylceramide synthase (GCS) (Homo sapiens) | nM | 0.32
Cn1ncc2ccc(-c3ccc4c(c3)OCCC4NC(=O)O[C@@H]3CN4CCC3CC4)cc21 (stereo partly shown) | glucosylceramide synthase (GCS) (Homo sapiens) | nM | 3.98
COc1cc2c(cc1-c1cccc(Cl)c1)OCC(C)(C)C2NC(=O)O[C@@H]1CN2CCC1CC2 (stereo partly shown) | glucosylceramide synthase (GCS) (Homo sapiens) | nM | 0.45
O=C(NC1CCOc2cc(-c3ccc(OC(F)(F)F)cc3)ccc21)O[C@@H]1CN2CCC1CC2 (stereo partly shown) | glucosylceramide synthase (GCS) (Homo sapiens) | nM | 9.4
COc1ccc(OC)c(-c2ccc3c(c2)OCC(C)(C)C3NC(=O)O[C@@H]2CN3CCC2CC3)c1 (stereo partly shown) | glucosylceramide synthase (GCS) (Homo sapiens) | nM | 0.58
